- Target or system: Angiotensin II receptor (AT-1) type-1 (Rattus norvegicus, UniProt P29089+P25095)
- Assay summary: Binding affinity towards Angiotensin II receptor, type 1 in rat liver membrane using [125I]-angiotensin II (0.1 nM)
- Assay type: cell membranes
Please note: IC50 exactly at 20 nM is N. Only values below 20 nM get Y.

Molecule: CCCCC1=NC2(CCCC2)C(=O)N1Cc1ccc(-c2ccccc2-c2nnc(O)o2)cc1
Target or system: Angiotensin II receptor (AT-1) type-1 (Rattus norvegicus, UniProt P29089+P25095)
Assigned category: N
--
Molecule: CCCCC1=NC(C)(C2CCCCC2)C(=O)N1Cc1ccc(-c2ccccc2-c2noc(O)n2)cc1 (stereo not drawn)
Target or system: Angiotensin II receptor (AT-1) type-1 (Rattus norvegicus, UniProt P29089+P25095)
Assigned category: Y
--
Molecule: CCCCC1=NC2(CCCC2)C(=O)N1Cc1ccc(-c2ccccc2-n2oc(=O)[nH]c2=O)cc1
Target or system: Angiotensin II receptor (AT-1) type-1 (Rattus norvegicus, UniProt P29089+P25095)
Assigned category: Y
--
Molecule: CCCCC1=NC2(CCCC2)C(=O)N1Cc1ccc(-c2ccccc2-c2noc(O)n2)cc1
Target or system: Angiotensin II receptor (AT-1) type-1 (Rattus norvegicus, UniProt P29089+P25095)
Assigned category: Y
--
Molecule: CCCCC1=NC2(CCCC2)C(=O)N1Cc1ccc(-c2ccccc2-c2nc(=O)[nH]o2)cc1
Target or system: Angiotensin II receptor (AT-1) type-1 (Rattus norvegicus, UniProt P29089+P25095)
Assigned category: N
--
Molecule: CCCCC1=NC(C)(C2CCCCC2)C(=O)N1Cc1ccc(-c2ccccc2-c2n[nH]c(O)n2)cc1 (stereo not drawn)
Target or system: Angiotensin II receptor (AT-1) type-1 (Rattus norvegicus, UniProt P29089+P25095)
Assigned category: N
--
Molecule: CCCCC1=NC2(CCCC2)C(=O)N1Cc1ccc(-c2ccccc2C2=NOC(=O)C2)cc1
Target or system: Angiotensin II receptor (AT-1) type-1 (Rattus norvegicus, UniProt P29089+P25095)
Assigned category: N
--
Molecule: CCCCC1=NC2(CCCC2)C(=O)N1Cc1ccc(-c2ccccc2-c2nnn[nH]2)cc1
Target or system: Angiotensin II receptor (AT-1) type-1 (Rattus norvegicus, UniProt P29089+P25095)
Assigned category: Y
